Listed below: EC50, HEK293 STAT6 SEAP reporter assay, hIL-13 values for each entry.
# Measured On: human IL-13 (human, UniProt P35225 35-146, biotinylated on the Biacore chip)
# Sequence (P35225 35-146 limits assumed): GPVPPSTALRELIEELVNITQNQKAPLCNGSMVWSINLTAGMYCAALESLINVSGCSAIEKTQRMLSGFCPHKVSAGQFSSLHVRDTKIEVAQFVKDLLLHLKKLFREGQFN
# Test Protocol: cell-based or functional assay
Readout Label: EC50, HEK293 STAT6 SEAP reporter assay, hIL-13 (nM)

[
  {
    "Binder": "DOM10-275-78 (other, VH dAb) VH: EVQLLESGGGLVQPGGSLRLSCVASGFTFDVAEMDWVRQAPGKGLEWVSTISPSRRGTYYADSVKGRFTISRDNSKNTLYLQMNSLRAEDTAVYYCAKAYTGRSLWGPGTLVTVSS",
    "Meas Value": 2.5
  },
  {
    "Binder": "DOM10-275-94 (other) VH: EVQLLESGGGLVQPGGSLRLSCAASGFTFDVAEMDWVRQAPGKGLEWVSTISPSRRGTYYADSVKGRFTISRDNSKNTLYLQMNSLRAEDTAVYYCAKAYTGRSWWGPGTLVTVSS",
    "Meas Value": 2.3
  }
]

Origin of values: patent US20090060916A1
